- experimental.target: T1, DVL3, Q92997
- T1 sequence (Q92997 244-331, limits assumed, looked up): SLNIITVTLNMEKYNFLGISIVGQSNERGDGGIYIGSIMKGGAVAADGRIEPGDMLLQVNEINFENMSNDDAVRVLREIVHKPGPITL
- method.notes: holdup assay
- Parameters: key: below the threshold = too weak to quantify, mostly under pKd 3.1 to 4
- test.parameters: plain residues with an end cap or a label only (N-terminal biotin on a linker: ado-ado)
quantity: pKd
Respond with the number and no other words.

// sample DFLSTFHIRI [CIB2, O75838] , its pKd was 3.59

// sample SFISKKEWYV [NECTIN1, Q15223] , its pKd was 4.51
